In this section, each of the compounds is paired with its reported TGI.
System: NCI-H460
EXPERIMENTAL PROTOCOL: Growth inhibition of human NCI-H460 cells after 48 hrs by SRB assay
Assay type: functional
RECORDED CONDITIONS: NCI-H460, 48 h
RECORDED METRIC: TGI (µM)

COMPOUND	UNITS	MEASURED NUMBER
c1ccc(CN2CCN(c3ccc(C(c4ccccc4)C45CC6CC(CC(C6)C4)C5)cc3)CC2)cc1 (configuration not stated)	µM	100
CCN1CCN(c2ccc(C(c3ccccc3)C34CC5CC(CC(C5)C3)C4)cc2)CC1 (configuration not stated)	µM	9.44
c1ccc(C(c2ccc(N3CCNCC3)cc2)C23CC4CC(CC(C4)C2)C3)cc1 (configuration not stated)	µM	6.72
c1ccc(C(c2ccc(N3CCOCC3)cc2)C23CC4CC(CC(C4)C2)C3)cc1 (configuration not stated)	µM	100
CN1CCN(c2ccc(C(c3ccccc3)C34CC5CC(CC(C5)C3)C4)cc2)CC1 (configuration not stated)	µM	7.66
c1ccc(C(c2ccc(N3CCN(C4CCCCC4)CC3)cc2)C23CC4CC(CC(C4)C2)C3)cc1 (configuration not stated)	µM	100
O=c1[nH]cc(F)c(=O)[nH]1 [FLUOROURACIL]	µM	100
